# Test system: PC-3 prostate
# method_description: NCI tumour cell line growth inhibition, 48 h
*1 amine or outer side, *2 acyl side, *3 side chain or, on linkers, in order; H or OH if unused. Where a SMILES comes first, the peptide text is derived from it. Bridges are numbered along the chain shown (N, C = ends). [ ]: non-standard residue; d: D form. The star is where a group is joined. X38 = CC[C@H](C)[C@@H](N[*:1])[C@@H](O)CC(=O)[*:2]; NMeY = CN[C@@H](Cc1ccc(O)cc1)C(=O)O; dNMeL = CN[C@H](CC(C)C)C(=O)O; Hiv = CC(C)[C@H](O)C(=O)O; Pyruvoyl = CC(=O)C(=O)*
reported_endpoint: TGI

In the examples that follow, each entry is paired with its recorded TGI.
molecule=Fc1ccc(-c2nc3n(c2-c2ccncc2)CCS3)cc1 tested_system="PC-3 prostate" val="> 25 µM"
molecule=CCOC(=O)NC(C(F)(F)F)(C(F)(F)F)P(=O)(OC(C)C)OC(C)C tested_system="PC-3 prostate" val="> 100 µM"
molecule=O=C(O)c1c[nH]c2c(Sc3ccccc3)nccc2c1=O tested_system="PC-3 prostate" val="> 100 µM"
molecule="C=C(c1ccccc1)C1ON(C)CCc2cc(OC)c(OC)cc21 (stereo unspecified)" tested_system="PC-3 prostate" val="> 100 µM"
molecule=CN(C)c1ccc2nc3ccc(=[N+](C)C)cc-3oc2c1 tested_system="PC-3 prostate" val="> 100 µM"

Hi! Can you tell me TGI for each of these molecules?
1. COc1ccc(C(=O)/C=C/c2ccc(OCC(=N)N)cc2)cc1OC
2. Oc1ccccc1/C=N/Nc1nnc2c3ccccc3c3ccccc3c2n1
3. NCCCCNCCCN1CC1
4. CCCCCC(=O)Nc1n[nH]nc1C(N)=O
5. CC(C)(O)c1ccc(N2CCN(c3nnc(Cc4ccccc4)c4ccccc34)CC2)nc1
6. Cn1c(=O)c2[nH]c(/N=N/N3CCN(CCO)CC3)nc2n(C)c1=O
7. CC(C)c1ccccc1SC1CC(=O)CC(Sc2ccccc2C(C)C)C12O[C@H](c1ccccc1)[C@@H](c1ccccc1)O2 (stereo partly specified)

1: > 10 µM; 2: > 100 µM; 3: > 100 µM; 4: > 100 µM; 5: > 56.5 µM; 6: > 100 µM; 7: > 100 µM

Hi! Can you tell me TGI for each of these molecules?
1. O=c1c2cc(S(=O)(=O)Nc3ccccc3Cl)ccc2ncn1NS(=O)(=O)c1ccc(Br)cc1
2. O=c1cc(CNc2cc(F)cc(F)c2)c2ccc(I)cc2[nH]1
3. NC1CC(=O)c2cc(Cl)sc21 (stereo unspecified)
4. C=C(C)[C@@H]1CC[C@]2(C(=O)NCCCN)CC[C@]3(C)[C@H](CC[C@@H]4[C@@]5(C)CC[C@H](O)C(C)(C)[C@@H]5CC[C@]43C)[C@@H]12
5. COc1cc2c(/C=C3/C(=O)Nc4ccc(Cl)cc43)c(Cl)n(Cc3ccccc3)c2cc1C
6. O=C(c1ccc(Cl)cc1Cl)N(C(=O)N1CCC(c2ccccc2)CC1)c1ccccc1

> 37.5 µM
> 100 µM
> 100 µM
37.8 µM
22.2 µM
> 100 µM

Hi! Can you tell me TGI for each of these molecules?
1. OCC1OC(n2ccc3c2ncn2ncnc32)C(O)C1O (stereo unspecified)
2. CC[C@](C)(O)C(=O)O[C@H]1C(=O)O[C@@H]2C[C@H]3C(C)=CC(=O)[C@@H](O)[C@]3(C)[C@H]3[C@@]4(O)OC[C@]32[C@@H]1[C@@H](C)[C@H]4O
3. CC1=C/C(=N\OCC(=O)O)CC(c2ccc(C(C)C)cc2)C1 (stereo unspecified)

22.8 µM
44.5 µM
> 100 µM

Hi! Can you tell me TGI for each of these molecules?
1. C/C(=N\N)C(CN(C)C)C(c1ccccc1)c1c(O)c2ccccc2oc1=O (stereo unspecified)
2. COc1ccc(Cn2nc(-c3cc(OC)c(OC)c(OC)c3)c3c2CCc2cnoc2-3)cc1OC
3. CC[C@H](C)[C@H]1NC(=O)[C@@H](NC(=O)[C@@H](CC(C)C)N(C)C(=O)[C@@H]2CCCN2C(=O)C(C)=O)[C@@H](C)OC(=O)[C@H](Cc2ccc(OC)cc2)N(C)C(=O)[C@@H]2CCCN2C(=O)[C@H](CC(C)C)NC(=O)[C@H](C(C)C)OC(=O)C[C@@H]1O (Pyruvoyl-P[dNMeL]T[X38][Hiv]LP[NMeY](Me); ester 3-C)
4. COC(=O)N1C[C@@]2(C=CC3(CC2)OCCO3)c2ccccc21
5. CCOC(=O)CCC(NC(=O)Cc1ccc(Nc2nc3ccccc3nc2-c2ccccc2)cc1)C(=O)OCC (stereo unspecified)

["> 100 µM", "65.3 µM", "0.261 µM", "> 100 µM", "> 100 µM"]

====

# System: SNB-19 CNS
# method_description: NCI tumour cell line growth inhibition, 48 h
reported_endpoint: log10 TGI (log10 of the value in µM)
Parameter value (number): base-10 log of TGI in µM.

In the examples that follow, each entry is paired with its recorded log10 TGI.
compound=COC(=O)[C@@H]1CSC(=S)N1C(=O)C[C@H]1CC=CC[C@H]1CC(=O)Sc1ccccc1 reported_endpoint="log10 TGI" val=1.54
compound=Cc1cc(N2CCCCC2)nc(N(CCNc2ccnc3cc(Cl)ccc23)Cc2ccco2)n1 reported_endpoint="log10 TGI" val=1.08
compound=CC(C)(O)c1ccc(N2CCN(c3nnc(Cc4ccccc4)c4ccccc34)CC2)nc1 reported_endpoint="log10 TGI" val=1.83
compound="N=C(N)c1nn(C2OC(CO)C(O)C2O)c2nc[nH]c(=O)c12 (stereo not given)" reported_endpoint="log10 TGI" val=0.94

Switching to the query record.
Need log10 TGI, item COc1cc2cc(Oc3ccc(NC(=O)Nc4ccc(Cl)c(C(F)(F)F)c4)cc3)c(C)nc2cc1OCCN1CCCCC1
0.50

====

# System: KM12 colon
# method_description: NCI tumour cell line growth inhibition, 48 h
reported_endpoint: TGI

molecule=NC(=S)NNC(=O)/C(=C/c1ccc(/C=C(\NC(=O)c2ccccc2)C(=O)NNC(N)=S)cc1)NC(=O)c1ccccc1 val="> 100 µM"
molecule="C/C(=N\\N)C(CN(C)C)C(c1ccccc1)c1c(O)c2ccccc2oc1=O (centres undefined)" val="> 100 µM"
molecule="O=C1CC(=O)NC(=NN2C(=O)CSC2c2ccc(Cl)c(Cl)c2)N1 (centres undefined)" val="> 100 µM"
molecule=Clc1cccc(Cl)c1C=NC12CC3CC(CC(C3)C1)C2 val="> 10 µM"
molecule="O=C1c2ccccc2C(=O)N1CC1(C(=O)O)NCCS1(=O)=O (centres undefined)" val="> 100 µM"
molecule=COc1ccc(-c2ccc(-c3ccc(C(=N)N)nc3)s2)cc1 val="3.3 µM"
molecule=C=CCONC(=O)c1ccc(Cl)cc1 val="> 100 µM"
molecule=COc1cc(/C=C\c2ccccn2)cc(OC)c1OC val="> 100 µM"

Hi! Can you tell me TGI for each of these molecules?
1. CCN1C(=O)N(CC)C2C1NN=c1s/c(=C3\C(=O)N(C(C)C)c4ccccc43)c(=O)n12 (centres undefined)
2. CCCN1C(=O)/C(=c2\sc3n(c2=O)C2C(NN=3)N(CC)C(=O)N2CC)c2ccccc21 (centres undefined)
3. CC1=C/C(=N\OCC(=O)O)CC(c2ccc(C(C)C)cc2)C1 (centres undefined)
4. NC(=O)c1cc2ccccc2oc1=Nc1ccccc1
5. CCC[CH2][Sn]([CH2]CCC)([O]C(C)=O)[O]C(C)=O
6. C[C@H]1[C@H](C)N(Cc2ccccc2)P(=O)(C(O)/C=C/c2ccccc2)N1Cc1ccccc1 (some centres undefined)

1. > 100 µM
2. 13.8 µM
3. > 100 µM
4. > 100 µM
5. 3.77 µM
6. > 25 µM

====

For each of the molecules below, state its TGI.
# Test system: HCC-2998 colon
# method_description: NCI tumour cell line growth inhibition, 48 h
Where a SMILES comes first, the peptide text is derived from it. [ ]: non-standard residue; d: D form. Phe(F5) = N[CH](Cc1c(F)c(F)c(F)c(F)c1F)C(=O)O

molecule=Fc1c(F)c(C(F)(F)F)c(F)c(F)c1N/N=C\c1c[nH]c2ccccc12 val="4.19 µM"
molecule="C=C(c1ccccc1)C1ON(C)CCc2cc(OC)c(OC)cc21 (centres undefined)" val="> 100 µM"
molecule="COC(=O)C(CC(C)C)NC(=O)C(Cc1cnc[nH]1)NC(=O)CNC(=O)C(NC(=O)C(C)NC(=O)C(Cc1c[nH]c2ccccc12)NC(=O)C(CCC(=O)O)NC(=O)C(N)Cc1c(F)c(F)c(F)c(F)c1F)C(C)C (centres undefined) (H-[Phe(F5)]EWAVGHL-OMe; configuration not given here)" val="> 100 µM"
molecule=O=C1NC(N2CCOCC2)=N/C1=C\c1cccs1 val="> 100 µM"
molecule=COC(=O)N1C[C@@]2(C=CC3(CC2)OCCO3)c2ccccc21 val="> 100 µM"
molecule=O=C(NC(C(F)(F)F)(C(F)(F)F)P(=O)(c1ccccc1)c1ccccc1)C(C(F)(F)F)C(F)(F)F val="> 100 µM"
molecule=Cc1c(C#N)c2nnn(C)c(=O)n2c1-c1ccccc1 val="> 100 µM"
molecule="CC12CCC=CC1CCC1C2CCC2(C)C(c3ccc(=O)oc3)CCC12O (centres undefined)" val="3.42 µM"

Hi! Can you tell me TGI for each of these molecules?
1. CCCCCCn1c(SCC)c2ccccc2c1-c1nc(F)nc(F)n1
2. CC1C2CC(CC(=O)N2)C1(C)C (centres undefined)

1. > 100 µM
2. > 100 µM

Hi! Can you tell me TGI for each of these molecules?
1. C=C1C(=O)O[C@H]2C[C@@H](C)[C@@H]3CC(=O)OC[C@@]3(C)CC12 (some centres undefined)
2. Clc1cccc(Cl)c1C=NC12CC3CC(CC(C3)C1)C2
3. COc1cc(NC(C)=O)c2[nH]c3c(C)cc(NC(C)=O)c(C)c3c2c1

1. 98.5 µM
2. > 10 µM
3. > 100 µM

I'm curious: which TGI was measured for CCN1C(=O)N(CC)C2C1NN=c1s/c(=C3\C(=O)N(C(C)C)c4ccccc43)c(=O)n12 (centres undefined) tested on HCC-2998 colon?
> 20.8 µM

Data provenance is PubChem BioAssay (NCI).
